- Tested on: MCF7
- METHOD SUMMARY: NCI tumour cell line growth inhibition, 48 h
Active and inactive are the calls of the source. Rule as the data show it: active = GI50 up to about 1.1 µM and inactive = higher.
Outcomes: True (active), False (inactive)

MOLECULE: CCOC(=O)N1CCN(Cc2cc(=O)n3ccc(C)cc3n2)CC1
GROUP: False

MOLECULE: N#CCCN(CCC#N)CCN(CCN(CCC#N)CCC#N)CCN(CCC#N)CCC#N
GROUP: False

MOLECULE: CC1(C)Oc2ccc3ccc(=O)oc3c2C(O)C1O (configuration not stated)
GROUP: False

MOLECULE: O=c1[nH]nc(Cc2c[nH]c3ccccc23)o1
GROUP: False

MOLECULE: CC(=O)OCC(OC(C)=O)C(OC(C)=O)C(OC(C)=O)C(C=NN(C(C)=O)S(=O)(=O)c1ccc(/C=C2\NC(=O)NC2=O)cc1)OC(C)=O (configuration not stated)
GROUP: False

MOLECULE: O=C1CC(Nc2ccccc2)c2c(Cl)sc(Cl)c21 (configuration not stated)
GROUP: False

MOLECULE: CC(C)=C[C@H]1CCC2(OCCO2)[C@]1(C)COCc1ccccc1
GROUP: False

MOLECULE: N#CC1=C(N)C(C#N)(C#N)C(c2ccc(F)cc2)C=C1C1CC1 (configuration not stated)
GROUP: False

MOLECULE: CCNc1ncnc2sc(SCc3ccccc3)nc12
GROUP: False

MOLECULE: Cc1ccc(/C=N/Nc2nncc3ccccc23)s1
GROUP: False

MOLECULE: CCCCCCCCC/C=C1/CC(CO)(COC(=O)c2ccccc2)OC1=O (configuration not stated)
GROUP: False

MOLECULE: COc1cccc2ccc3c(c12)C(=O)OC31CCc2c(C)cccc21 (configuration not stated)
GROUP: True

MOLECULE: Br[C@@H]1[C@H]2c3nc4ccccc4nc3[C@@H]1C[C@H]2Br
GROUP: False

MOLECULE: Clc1ccc(-c2nc3cc(Cl)ccc3[nH]2)cc1
GROUP: False

MOLECULE: CC(=O)Nc1ccc(OC/C(N)=N/NC(=O)c2ccncc2)cc1
GROUP: False

MOLECULE: Cc1cc(C)c2c(c1)C(=O)/C(=C/c1ccccc1C(=O)O)C2
GROUP: False

MOLECULE: C=Cn1c([N+](=O)[O-])cnc1/C=C/c1ccc(C(=O)OCCN2CCOCC2)cc1
GROUP: False

MOLECULE: N/C(=N\OC(=O)NC(Cl)=C(Cl)Cl)c1cc(C(F)(F)F)cc(C(F)(F)F)c1
GROUP: False

MOLECULE: CC(=O)/N=C1\C=C(NC(C)=O)C(=O)c2ccccc21
GROUP: False

MOLECULE: Cc1cc(O)nc2cc3oc4ccccc4c3cc12
GROUP: False

MOLECULE: COc1cc(N(CCC#N)CCC#N)ccc1C(/N=N/c1cccc([N+](=O)[O-])c1)=N\NC(=O)c1ccc(C)cc1
GROUP: False

MOLECULE: O=C1N[C@@H]2c3c(Br)sc(Br)c3C(=O)[C@@H]2O1
GROUP: False
